// data source = patent US20030086923A1

Target protein (sequence): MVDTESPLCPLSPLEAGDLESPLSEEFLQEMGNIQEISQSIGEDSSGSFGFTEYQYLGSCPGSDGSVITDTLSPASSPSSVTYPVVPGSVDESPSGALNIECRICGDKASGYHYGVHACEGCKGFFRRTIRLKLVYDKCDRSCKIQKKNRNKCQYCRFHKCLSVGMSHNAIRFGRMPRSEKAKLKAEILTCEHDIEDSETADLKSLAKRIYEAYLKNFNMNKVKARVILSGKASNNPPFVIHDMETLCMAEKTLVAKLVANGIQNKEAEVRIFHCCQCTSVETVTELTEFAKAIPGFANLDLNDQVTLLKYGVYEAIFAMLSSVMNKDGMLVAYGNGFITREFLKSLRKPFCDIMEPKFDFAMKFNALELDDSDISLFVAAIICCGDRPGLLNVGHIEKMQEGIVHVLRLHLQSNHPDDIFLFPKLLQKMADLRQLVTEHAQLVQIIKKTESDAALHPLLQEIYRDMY

[
  {
    "structureAsSmiles": "CC(=O)Oc1ccc2c(c1)[C@@]1(C)CCC[C@](C)(C(=O)OC(=O)[C@@]3(C)CCC[C@]4(C)c5cc(OC(C)=O)ccc5CC[C@@H]34)[C@@H]1CC2",
    "IC50": "> 10 µM"
  }
]

###

Target: human GST-LXRβ ligand binding domain receptor (Homo sapiens, UniProt P55055)
Sequence (P55055 149-455): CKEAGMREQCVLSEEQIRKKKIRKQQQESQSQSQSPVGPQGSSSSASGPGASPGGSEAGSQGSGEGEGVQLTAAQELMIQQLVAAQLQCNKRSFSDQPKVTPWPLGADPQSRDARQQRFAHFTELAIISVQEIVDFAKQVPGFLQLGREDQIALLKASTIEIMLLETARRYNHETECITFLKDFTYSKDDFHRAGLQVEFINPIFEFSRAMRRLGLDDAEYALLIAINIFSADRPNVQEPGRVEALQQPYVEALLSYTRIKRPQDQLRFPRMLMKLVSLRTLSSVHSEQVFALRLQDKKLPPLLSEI
Catalogue of IC50 values

[
  {
    "compound": "CCCc1c(OCCCN2C(=O)CCNC2=O)ccc2c(C(F)(F)F)noc12",
    "targetOrTestSystem": "human GST-LXRβ ligand binding domain receptor (Homo sapiens, UniProt P55055)",
    "unitSpec": "nM",
    "IC50": 72
  },
  {
    "compound": "CC(C)N(C(=O)[C@H]1CCC2C3CC=C4N(C)C(=O)CCC4(C)C3CCC21C)C(C)C (some centres unmarked)",
    "targetOrTestSystem": "human GST-LXRβ ligand binding domain receptor (Homo sapiens, UniProt P55055)",
    "unitSpec": "nM",
    "IC50": 442
  }
]

###

target: LXRα-GAL4 fusion protein (Homo sapiens); assay: LXRα/GAL4 transactivation assay in HEK-293 cells; conditions: 48 h
Sequence (Q13133 209-447 limits assumed): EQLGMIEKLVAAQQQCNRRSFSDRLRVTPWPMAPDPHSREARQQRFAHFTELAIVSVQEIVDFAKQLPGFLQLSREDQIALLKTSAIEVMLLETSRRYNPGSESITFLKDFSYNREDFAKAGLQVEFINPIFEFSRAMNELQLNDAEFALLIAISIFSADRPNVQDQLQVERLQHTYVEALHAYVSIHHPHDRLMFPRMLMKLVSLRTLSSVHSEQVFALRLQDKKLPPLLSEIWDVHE
pEC50: −log10 of the molar value.

[
  {
    "compound": "CCCc1c(OCCCN2C(=O)CCNC2=O)ccc2c(C(F)(F)F)noc12 [Compound 4]",
    "pEC50": 6.74
  }
]

###

target: LXRβ-GAL4 fusion protein (Homo sapiens, UniProt P55055); test: LXRβ/GAL4 transactivation assay in HEK-293 cells; conditions: 48 h

[
  {
    "structureAsSmiles": "CCCc1c(OCCCN2C(=O)CCNC2=O)ccc2c(C(F)(F)F)noc12",
    "targetOrTestSystem": "LXRβ-GAL4 fusion protein (Homo sapiens, UniProt P55055)",
    "unitSpec": "µM",
    "EC50": 0.36
  }
]
